These data points were gathered from PubChem BioAssay (NCI).

Exercise: state measured growth for each of the molecules provided.
Test system: SNB-19 CNS
Assay: NCI-60 one-dose screen, 48 h (100 = growth as untreated, 0 = no growth, -100 = all killed)
Settings: 10 µM unless noted
The panel holds about 83,000 compounds, 20% with a hit somewhere; the sample as a whole holds those more often.
The reply should contain only the number, in %.

Task item: What growth value was documented for this molecule, "COc1cc(CCn2nnc3c(NCCCCO)ncnc32)cc(OC)c1" ?
Reply: 106

Task item: What growth value was documented for this molecule, "NC(=S)NN=C1CCCCC1" ?
Reply: 106

Task item: What growth value was documented for this molecule, "O=C1c2ccccc2C(=O)c2c1oc1oc3c(c(=O)c21)c(=O)n(-c1ccccc1)c1ccccc31" ?
Reply: 27.9

Task item: What growth value was documented for this molecule, O=C(c1ccccc1)C(Cl)C(Cl)c1ccccc1 (centres undefined) ?
Reply: 92

----------
Tested on: SR leukemia
Test: NCI-60 one-dose screen, 48 h (100 = growth as untreated, 0 = no growth, -100 = all killed)
Conditions: 10 µM unless noted
Compounds without any hit were thinned out: in the full panel of roughly 83,000, 20% have a hit.
Exercise: state measured growth for each of the compounds provided.
The reply should contain only the number, in %.

Task item: Provide value of growth for this record tested with SR leukemia: "CC/C=C\C[C@H](O)C/C=C1/C(=O)C(Cl)=C[C@@H]1C/C=C\CCCC(=O)OC"
Reply: 1.41

Task item: Provide value of growth for this record tested with SR leukemia: "COc1ncc(-c2ccc3ncnc(Nc4cccc(Cl)c4)c3c2)cc1NS(=O)(=O)CCN1CCOCC1"
Reply: 9.25

Task item: Provide value of growth for this record tested with SR leukemia: "COc1ccc(/C=C/c2cc(N3CCOCC3)c3cc(F)c(F)cc3n2)cc1OC"
Reply: 16.2

Task item: Provide value of growth for this record tested with SR leukemia: "COc1cccc(/C=C/C(=O)c2sc(Nc3ccc(O)cc3)nc2C)c1"
Reply: 35.8

Task item: Provide value of growth for this record tested with SR leukemia: "Nc1c(C(=O)c2ccc(F)cc2)sc2nc3c(cc12)CCCC3"
Reply: 46.3

Task item: Provide value of growth for this record tested with SR leukemia: "C=CCOc1cccc(/C=C/C(=O)c2sc(Nc3cccnc3)nc2C)c1"
Reply: 42.4

Task item: Provide value of growth for this record tested with SR leukemia: "FC(F)(F)c1cccc(-n2nnc3cnc(Nc4ccc(N5CCCCC5)cc4)nc32)c1"
Reply: 29.2

----------
Tested on: 786-0 renal
Assay: NCI-60 one-dose screen, 48 h (100 = growth as untreated, 0 = no growth, -100 = all killed)
Settings: 10 µM unless noted
About 83,000 compounds went through this panel and 20% of them were active in at least one assay; those are over-represented in the sample as a whole. Activity calls are given as the source filed them. How the source made its calls: active means growth percent below 10; inactive means the rest.
Exercise: state measured growth for each of the molecules provided.

Task item: What growth value was documented for this molecule, Nc1c(C(=O)Nc2cccc(C(F)(F)F)c2)sc2nc3c(cc12)C(O)CCC3 (stereo unspecified) ?
Reply: 47.4% (inactive)

Task item: What growth value was documented for this molecule, O=c1cc(C2NCCc3c2[nH]c2ccccc32)c2c(ccc3ccccc32)o1 (stereo unspecified) ?
Reply: 59.1% (inactive)

Task item: What growth value was documented for this molecule, "O=C(CN1CCN(c2cc3c(cc2F)c(=O)c(C(=O)O)cn3C2CC2)CC1)Nc1ccc(C(=O)/C=C/c2ccc(Cl)cc2)cc1" ?
Reply: 88.9% (inactive)

Task item: What growth value was documented for this molecule, "COc1cc(C(=O)/C=C/c2cc(C(=O)c3cc(OC)c(OC)c(OC)c3)ccc2OC)ccc1N" ?
Reply: 10.5% (inactive)

Task item: What growth value was documented for this molecule, "Cc1ccc2nc(-c3c(N)n[nH]c3CCCO)[nH]c(=O)c2c1" ?
Reply: 101% (inactive)

Task item: What growth value was documented for this molecule, COc1ccc(C2CC(c3cccs3)=NN2c2ccc(S(=O)(=O)NC(=O)NCc3cccc(OC)c3)cc2)cc1 (stereo unspecified) ?
Reply: 101% (inactive)

Task item: What growth value was documented for this molecule, "CC(C)(C)c1ccc(S(=O)(=O)Oc2ccc3c4c(c(=O)oc3c2)CCCCC4)cc1" ?
Reply: 60.8% (inactive)

Task item: What growth value was documented for this molecule, COC(=O)[C@H]1[C@H](OC)[C@@H](OC(=O)/C=C/c2ccncc2)CC2CN3CCc4c([nH]c5cc(OC)ccc45)[C@@H]3C[C@@H]21 (stereo partly specified) ?
Reply: 83.5% (inactive)

Task item: What growth value was documented for this molecule, C/C1=C\CCC2(C)OC2CC2CCC(C)(O)C(CC1)C2(C)C (stereo unspecified) ?
Reply: 98.9% (inactive)

Task item: What growth value was documented for this molecule, "O=C(Nc1cc(C(F)(F)F)cc(C(F)(F)F)c1)Nc1ccc(OCc2nnc(-c3ccc(Cl)cc3)o2)c(F)c1" ?
Reply: 15.1% (inactive)

Task item: What growth value was documented for this molecule, "CC/C=C\C/C=C\C[C@H](O)C/C=C1/C(=O)C=C[C@H]1C/C=C\CCC(=O)OC" ?
Reply: 44.7% [8.25 µM] (inactive)

Task item: What growth value was documented for this molecule, N#CC1=C(N)OC2=C(C(=O)CCC2)C1c1ccco1 (stereo unspecified) ?
Reply: 101% (inactive)

Task item: What growth value was documented for this molecule, "CCOc1ccc(/C=C/C=N/NC(N)=S)cc1" ?
Reply: 56% (inactive)

Task item: What growth value was documented for this molecule, "CCCCCCc1nc2c(c(C)nn2-c2ccccc2)c2c1CCCCC2" ?
Reply: 108% (inactive)

Task item: What growth value was documented for this molecule, "CCN(CC)P(=O)(N(CC)CC)N(CCCSC/C=C(\C)CC/C=C(\C)CCC=C(C)C)CCCN1CCN(C)CC1" ?
Reply: 101% (inactive)

Task item: What growth value was documented for this molecule, "COc1ccc(OC)c(C(=O)c2oc3ccc(Br)cc3c2N)c1" ?
Reply: 38% (inactive)

Task item: What growth value was documented for this molecule, "O=C(OCCCCOC(=O)n1cnc2ccccc21)n1cnc2ccccc21" ?
Reply: 105% (inactive)

Task item: What growth value was documented for this molecule, "O=c1[nH]c2ccccc2cc1-c1nnc(Cc2ccccc2)o1" ?
Reply: 58.3% (inactive)

Task item: What growth value was documented for this molecule, "O=C1CCCCN1CCCCC#Cc1ccccc1C#Cc1ccccn1" ?
Reply: 102% (inactive)

Task item: What growth value was documented for this molecule, "O=C(CNC(=O)c1cccc2ccccc12)Nc1ccccc1Oc1ccccc1" ?
Reply: 16.3% (inactive)

Task item: What growth value was documented for this molecule, "COc1cc2nc(Cl)nc(NCCO)c2cc1OC" ?
Reply: 111% (inactive)

Task item: What growth value was documented for this molecule, "COc1ccc(-c2nnc(COc3ccc(NC(=O)Nc4ccc(Cl)c(C(F)(F)F)c4)cc3F)o2)cc1" ?
Reply: 24.7% (inactive)

Task item: What growth value was documented for this molecule, "Nc1ccccc1C#C/C=C\C#Cc1cccc(O)c1" ?
Reply: 61.5% (inactive)

Task item: What growth value was documented for this molecule, "O=S(=O)(NCCCNc1nccc(-c2c(-c3ccc(F)c(O)c3)nc3sccn23)n1)c1ccc(Cl)cc1" ?
Reply: 110% (inactive)

Task item: What growth value was documented for this molecule, "CSc1nc(-c2cc3ccccc3o2)cc(-c2ccc(Cl)cc2)c1C#N" ?
Reply: 90.3% (inactive)

Task item: What growth value was documented for this molecule, "Cc1oc2nc[nH]c(=O)c2c1C(=O)/C=C/c1ccc(Cl)cc1" ?
Reply: 29.7% (inactive)
